# target_system: T1, human IL-8 (human, UniProt P10145 23-99, limits assumed)
# T1 construct: also called hIL-8; hIL8
# T1 sequence (P10145 23-99 limits assumed): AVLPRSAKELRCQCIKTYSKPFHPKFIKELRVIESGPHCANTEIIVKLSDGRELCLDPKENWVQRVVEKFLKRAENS
# method_description: SPR Biacore T200, Protein A/G capture, pH 5.8, 37C;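 note: antibodies captured by Protein A/G amine-coupled onto a CM4 sensor chip, with kinetic parameters derived using Biacore T200 Evaluation Software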
measured_property: Kd
Just so you know, I need the unit written after the number.

Form field Kd, entry H1028/L0395 (antibody, human IgG1, kappa, name in Kabat numbering, V domains shown) VH: QVQLVESGGGLVQPGGSLRLSCAASGFTFSDYYLSWVRQAPGKGLEWVGLIRNKDNYHHPEYSASVKGRFTISRDDSKNSLYLTMSDLKTEDTAVYYCARENHRYDVELAYWGQGTLVTVSS VL: DIQMTQSPSSLSASVGDRVTITCRASEIIYSYLAWYQQKPGKAPKLLIYKAKTHADGVPSRFSGSGSGTDFTFTISSLQPEDIATYYCKHHFGFPRTFGQGTKVEIKR : 0.21 µM

Input H0932/L0442 (antibody, human IgG1, kappa, name in Kabat numbering, V domains shown) VH: QVQLVESGGGLVQPGGSLRLSCAASGFTFSDYYLSWVRQAPGKGLEWVGLIRNKDNHHTPEYSASVKGRFTISRDDSKNSLYLTMSDLKTEDTAVYYCARENHRYDVELAYWGQGTLVTVSS VL: DIQMTQSPSSLSASVGDRVTITCRASEIIYEYLAWYQQKPGKAPKLLIYKAKTHADGVPSRFSGSGSGTDFTFTISSLQPEDIATYYCKHHFGFPRTFGQGTKVEIKR . Output Kd: 0.079 µM
